Sourced from patent US20240309087A1

Molecular target: T1, hCD112R mFC recombinant protein (human; murine, UniProt Q6DKI7 41-160)
T1 construct: range 41-160; expressed in 293E cells; also called hCD112R ECD mFC; hCD112R-ECD-mFC; not shown: murine IgG2a Fc domain (MX2-mFc vector)
T1 sequence (looked up): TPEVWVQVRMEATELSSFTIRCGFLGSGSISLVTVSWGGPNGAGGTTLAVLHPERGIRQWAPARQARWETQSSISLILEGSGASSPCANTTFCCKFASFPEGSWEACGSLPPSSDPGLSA
Assay: ELISA, coated hCD112R-ECD-mFC

{"columns": ["Binder", "EC50, ng/mL"],
 "data": [
  ["Hu17 (antibody, IgG4, V domains shown, humanized IgG4) VH: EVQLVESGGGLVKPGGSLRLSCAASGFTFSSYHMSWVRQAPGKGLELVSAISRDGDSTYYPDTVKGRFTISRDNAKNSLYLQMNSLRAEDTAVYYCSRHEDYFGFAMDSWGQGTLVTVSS VL: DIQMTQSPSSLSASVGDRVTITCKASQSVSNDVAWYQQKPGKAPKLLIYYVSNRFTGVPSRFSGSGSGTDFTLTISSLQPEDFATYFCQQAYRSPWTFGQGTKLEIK", 4.18],
  ["Hu4 (antibody, IgG4, V domains shown, humanized IgG4; also called Hu-04) VH: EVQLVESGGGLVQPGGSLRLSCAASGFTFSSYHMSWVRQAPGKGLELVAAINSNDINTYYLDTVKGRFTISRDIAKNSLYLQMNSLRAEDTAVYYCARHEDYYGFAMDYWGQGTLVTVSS VL: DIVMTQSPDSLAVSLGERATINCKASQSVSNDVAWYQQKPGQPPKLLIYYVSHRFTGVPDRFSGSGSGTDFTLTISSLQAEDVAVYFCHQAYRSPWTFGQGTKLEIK", 2.95],
  ["Hu6 (antibody, IgG4, V domains shown, humanized IgG4; also called Hu-06) VH: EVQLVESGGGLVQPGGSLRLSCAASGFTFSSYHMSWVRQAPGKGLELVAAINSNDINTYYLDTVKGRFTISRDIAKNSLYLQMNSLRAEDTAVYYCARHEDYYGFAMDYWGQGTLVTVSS VL: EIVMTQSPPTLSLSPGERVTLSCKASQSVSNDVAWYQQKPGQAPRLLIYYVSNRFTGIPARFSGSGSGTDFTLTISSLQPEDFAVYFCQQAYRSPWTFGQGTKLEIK", 2.71]
]}
